Assay: chemical genetic growth profiling, strain panel (AID 1159580);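 also: tested at 20 µM; growth read once vehicle control cultures reached saturation at 30 °C; 1 = growth at the plate median or of vehicle wells; lower values mean less growth of the strain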
Settings: S. cerevisiae deletion strains, growth OD, locus YGL253W, strain hxk2
About 2,000 (36%) of roughly 5,500 compounds were called active. Roughly 18% stayed inconclusive and do not appear here. Rule as the data show it: active = normalized growth mostly below about 0.91 (no sharp cut-off); inconclusive = no clear call, values can overlap the other calls; inactive = mostly above about 0.92. The list shows a part of the results.
The reply should name one outcome from active, inactive

Some solved cases for reference:
>  <compound>
CCCCCC(C)N (configuration not stated)

>  <class>
inactive

$$$$
>  <compound>
CC(C)(CO)C(O)C(=O)NCCCO (configuration not stated)

>  <class>
inactive

$$$$
>  <compound>
C[N+](C)(C)CC(=O)[O-]

>  <class>
inactive

$$$$
>  <compound>
CC(=O)CC(=O)CCC(=O)O

>  <class>
inactive

$$$$

Lab log entry: CC1(C)S[C@@H]2[C@H](NC(=O)[C@H](NC(=O)N3CCNC3=O)c3ccccc3)C(=O)N2C1C(=O)O (some centres not stated) — outcome as called in the assay?
inactive

Lab log entry: "CCCCCCCC/C=C/CCCCCCCCOP(=O)([O-])OCC[N+](C)(C)C" — outcome as called in the assay?
active

Lab log entry: "C=CCc1ccc2c(c1)OCO2" — outcome as called in the assay?
inactive

----------
Test: chemical genetic growth profiling, strain panel (AID 1159580)
Conditions: S. cerevisiae deletion strains, growth OD, locus YOR083W, strain WHI5, active compounds read low
In all, about 5,500 compounds went through this assay and about 2,000 (36%) were called active. Not shown: some 18% with an inconclusive outcome. This is one part of the list.
Collected normalized growth values appear next to each entry.
Reply with the value as a number alone.

>  <compound>
O=C(/C=C/c1ccccc1)O[C@H]1C[C@@H](O)[C@]2(O)C=CO[C@@H](O[C@@H]3O[C@H](CO)[C@@H](O)[C@H](O)[C@H]3O)[C@H]12

>  <measured_number>
0.986

$$$$
>  <compound>
CC(C)[C@H](N)C(=O)OCCOCn1cnc2c(=O)[nH]c(N)nc21

>  <measured_number>
0.992

$$$$
>  <compound>
Cc1cc(=O)c2c(O)cc(O)c(C)c2o1

>  <measured_number>
0.919

$$$$
>  <compound>
CC(C)=CCc1c(O)cc2oc(C)cc(=O)c2c1O

>  <measured_number>
0.947

$$$$
>  <compound>
Cc1cc(=O)c2c(O)c(C)c(O)cc2o1

>  <measured_number>
1.01

$$$$
>  <compound>
OCC(O)Cc1ccc2c(c1)OCO2 (centres undefined)

>  <measured_number>
1

$$$$

What does the record list as normalized growth for "CC(=O)CC(=O)CCC(=O)O" ?
1

What does the record list as normalized growth for CN1CCCC(n2nc(Cc3ccc(Cl)cc3)c3ccccc3c2=O)CC1 (centres undefined) ?
0.966

What does the record list as normalized growth for "N#Cc1c(Cl)c(Cl)c(Cl)c(C#N)c1Cl" ?
0.0798

What does the record list as normalized growth for "COc1cccc([C@]2(O)CCCC[C@H]2CN(C)C)c1" ?
0.968

What does the record list as normalized growth for COc1cccc2c1CCC1CC(=O)CCC21C (centres undefined) ?
0.987

What does the record list as normalized growth for "NC(N)=NOCC[C@H](N)C(=O)O" ?
1

----------
Test: chemical genetic growth profiling, strain panel (AID 1159580)
Settings: S. cerevisiae deletion strains, growth OD, locus YDR101C, strain arx1, active compounds read low
The campaign covered roughly 5,500 compounds. About 2,000 (36%) were called active. Inconclusive results (about 18%) are left out. Some of the results follow.
measured_attribute: normalized growth
Reply with the value as a number alone.

Below, 10 compounds whose answers are already recorded.
>  <compound>
CO[C@H]1C[C@H](O[C@H]2[C@H](C)[C@@H](OC3O[C@H](C)C[C@H](N(C)C)[C@H]3O)[C@@H](C)C[C@]3(CO3)C(=O)[C@H](C)[C@@H](O)[C@@H](C)[C@@H](C)OC(=O)[C@@H]2C)O[C@@H](C)[C@@H]1O (some centres undefined)

>  <normalized growth>
1

$$$$
>  <compound>
C/C=C(/C(=C/C)c1ccc(O)cc1)c1ccc(O)cc1

>  <normalized growth>
0.846

$$$$
>  <compound>
N=c1nc(N2CCCCC2)cc(N)n1O

>  <normalized growth>
1.01

$$$$
>  <compound>
O=c1ccc2ccccc2o1

>  <normalized growth>
0.968

$$$$
>  <compound>
CN1Cc2c(ccc3c2OCO3)C2C(O)Cc3cc4c(cc3C21)OCO4 (centres undefined)

>  <normalized growth>
0.999

$$$$
>  <compound>
COC(=O)c1c(Cl)c(Cl)c(C(=O)OC)c(Cl)c1Cl

>  <normalized growth>
0.995

$$$$
>  <compound>
COc1ccc2c(c1)OC[C@@H](Cc1ccc(OC)c(OC)c1)[C@H]2O

>  <normalized growth>
0.981

$$$$
>  <compound>
S=C=NCc1ccccc1

>  <normalized growth>
0.0574

$$$$
>  <compound>
CC(=O)[C@H]1CCC2C3C[C@H](C)C4=CC(=O)CC[C@]4(C)C3[C@@H](O)C[C@@]21C (some centres undefined)

>  <normalized growth>
0.989

$$$$
>  <compound>
COc1ccc2c(c1)OC[C@@H](Cc1ccc(OC)c(OC)c1)[C@@H]2O

>  <normalized growth>
0.983

$$$$

Read the next record carefully.
What does the record list as normalized growth for CCCCCC(C)N (centres undefined) ?
0.99

----------
Assay: chemical genetic growth profiling, strain panel (AID 1159580);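 also: tested at 20 µM; growth read once vehicle control cultures reached saturation at 30 °C; 1 = growth at the plate median or of vehicle wells; lower values mean less growth of the strain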
Conditions: S. cerevisiae deletion strains, growth OD, locus YKL160W, strain elf1, active compounds read low
Out of some 5,500 compounds screened, about 2,000 (36%) were called active. About 18% were inconclusive and are not listed. This is one part of the list.
Collected normalized growth values appear next to each entry.
Reply with the value as a number alone.

Below, 2 molecules whose answers are already recorded.
>  <molecule>
CN=C(NC#N)NCCSCc1nc(N=C(N)N)cs1

>  <normalized growth>
0.975

$$$$
>  <molecule>
CC(C)(CO)C(O)C(=O)NCCCO (centres undefined)

>  <normalized growth>
1.01

$$$$

What does the record list as normalized growth for CC(=O)O[C@H]1C(=O)[C@@]2(C)C([C@H](OC(=O)c3ccccc3)[C@]3(O)C[C@H](O)C(C)=C1C3(C)C)[C@]1(OC(C)=O)CO[C@@H]1C[C@@H]2O (some centres undefined) ?
1.01

What does the record list as normalized growth for "Cc1c(N(C)C)c(=O)n(-c2ccccc2)n1C" ?
0.988

What does the record list as normalized growth for "CC(=O)CC(=O)CCC(=O)O" ?
1

What does the record list as normalized growth for "Cc1ccc(O)cc1" ?
1.01

What does the record list as normalized growth for "C[N+](C)(C)CC(=O)[O-]" ?
0.995

What does the record list as normalized growth for "C=CC1=C(C(=O)O)N2C(=O)[C@@H](NC(=O)/C(=N/O)c3csc(N)n3)[C@H]2SC1" ?
1.02

What does the record list as normalized growth for CCc1ccc(CCOc2ccc(CC3SC(=O)NC3=O)cc2)nc1 (centres undefined) ?
1.02

----------
Collected normalized growth values appear next to each entry.
Experiment: chemical genetic growth profiling, strain panel (AID 1159580);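 also: tested at 20 µM; growth read once vehicle control cultures reached saturation at 30 °C; 1 = growth at the plate median or of vehicle wells; lower values mean less growth of the strain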
Settings: S. cerevisiae deletion strains, growth OD, locus YOL006C, strain TOP1, active compounds read low
The campaign covered roughly 5,500 compounds. About 2,000 (36%) were called active. About 18% were inconclusive and are not listed. This is one part of the list.

Below, 4 compounds whose answers are already recorded.
>  <chemical_string>
COC(=O)c1c(Cl)c(Cl)c(C(=O)OC)c(Cl)c1Cl

>  <normalized growth>
0.914 (inactive)

$$$$
>  <chemical_string>
CCOC(=O)/C=C(\C)OP(=O)(OC)OC

>  <normalized growth>
0.926 (inactive)

$$$$
>  <chemical_string>
COC(=O)COc1cc(Cl)c(Cl)cc1Cl

>  <normalized growth>
0.895 (inactive)

$$$$
>  <chemical_string>
CC1(C)/C(=N/OC(=O)c2cccc(C(F)(F)F)c2)[C@]2(C)CCC1C2

>  <normalized growth>
0.898 (inactive)

$$$$

Read the next record carefully.
What does the record list as normalized growth for "Cc1ccc2cc(C)c(C)cc2c1" ?
0.902 (inactive)

----------
Test: chemical genetic growth profiling, strain panel (AID 1159580);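 also: tested at 20 µM; growth read once vehicle control cultures reached saturation at 30 °C; 1 = growth at the plate median or of vehicle wells; lower values mean less growth of the strain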
Conditions: S. cerevisiae deletion strains, growth OD, locus YER155C, strain BEM2, active compounds read low
Among all 5,500 compounds or so, about 2,000 (36%) were called active. Another 18% or so got no clear call; they are omitted. This is one part of the list.
Collected normalized growth values appear next to each entry.

Below, 5 molecules whose answers are already recorded.
>  <molecule>
CCC1(C)CC(=O)NC1=O (configuration not stated)

>  <normalized growth>
0.999 (inactive)

$$$$
>  <molecule>
CN1C2CC3C[C@H]1C(O3)C2O (some centres not stated)

>  <normalized growth>
1 (inactive)

$$$$
>  <molecule>
NC/C=C/C(=O)O

>  <normalized growth>
0.999 (inactive)

$$$$
>  <molecule>
NC(=O)c1ncn([C@@H]2O[C@H](CO)[C@@H](O)[C@H]2O)c1O

>  <normalized growth>
1 (inactive)

$$$$
>  <molecule>
c1ccc(CC2=NCCN2)cc1

>  <normalized growth>
0.891 (active)

$$$$

What does the record list as normalized growth for "COc1ccc(-c2coc3c(OC)c(OC)ccc3c2=O)cc1" ?
0.988 (inactive)

What does the record list as normalized growth for CC(C(=O)O)c1ccc2c(c1)[nH]c1ccc(Cl)cc12 (configuration not stated) ?
0.997 (inactive)

What does the record list as normalized growth for "COc1cc(O)c(C(=O)c2ccccc2)cc1O" ?
1.01 (inactive)

What does the record list as normalized growth for "CCOC(=O)/C=C(\C)OP(=O)(OC)OC" ?
0.984 (inactive)

What does the record list as normalized growth for "COc1cc(O)c2c(=O)cc(C)oc2c1CC=C(C)C" ?
0.928 (inactive)

What does the record list as normalized growth for CC1(O)/C=C/C=C(\CO)C2CC(C)(C)C2(O)CC1 (configuration not stated) ?
1 (inactive)

What does the record list as normalized growth for "Cc1c(O)cc(O)c2c(=O)c(-c3ccc(O)cc3)coc12" ?
1.01 (inactive)

What does the record list as normalized growth for "COc1ccc(C(=O)c2ccccc2)c(O)c1" ?
0.926 (active)
